Tested on: A498 renal
testProtocol: NCI-60 one-dose screen, 48 h (100 = growth as untreated, 0 = no growth, -100 = all killed)
studyConditions: 10 µM unless noted
Compounds without any hit were thinned out: in the full panel of roughly 83,000, 20% have a hit. Calls of active or inactive are those of the source. Rule for the calls: active = growth percent below 10; inactive = the rest.
metricName: growth

Look over these answered cases.
compound=COc1ccc(CN2C(=O)/C(=C\C(=O)c3ccc(OCCN4CCCC4)cc3)c3ccccc32)cc1 testedtarget="A498 renal" assayvalue="88.8% (inactive)"
compound=COC(=O)c1ccc2[nH]c(O)c(C(=Nc3ccc(N(C)C(=O)CN4CCN(C)CC4)cc3)c3ccc(N)cc3)c2c1 testedtarget="A498 renal" assayvalue="92.7% (inactive)"
compound=CC(=O)c1ccc2c(c1)c1ccccc1n2C testedtarget="A498 renal" assayvalue="-85.3% (active)"
compound=Cc1ccc2c(c1)C(=O)CCS2 testedtarget="A498 renal" assayvalue="82.8% (inactive)"
compound=COc1cc(-c2nn(-c3ccc(NC(=O)Nc4ccc(Cl)c(C(F)(F)F)c4)cc3)cc2-c2ccncc2)ccc1Cl testedtarget="A498 renal" assayvalue="6.77% (active)"
compound=COc1cc(OC)c(/C=C/c2ccc3ccccc3[n+]2C)c(OC)c1 testedtarget="A498 renal" assayvalue="7.12% (active)"
compound=O=S(=O)(O)CCI testedtarget="A498 renal" assayvalue="90.7% (inactive)"
compound=CCOC(=O)/C(C#N)=C(/CC)OCC testedtarget="A498 renal" assayvalue="122% (inactive)"
compound="CC(CCN1CCN(CCC(C)CC(C)(C)C)C1CC(C)CC(C)(C)C)CC(C)(C)C (configuration not stated)" testedtarget="A498 renal" assayvalue="112% (inactive)"
compound=O=C1/C(=C/c2ccc(Cl)cc2)CCC/C1=C\c1ccc(Cl)cc1 testedtarget="A498 renal" assayvalue="105% (inactive)"

Please look at the following compound next.
Query: I would be grateful if you could share the reported growth for "O=C(/C=C/c1ccc(Br)cc1)c1ccccc1" .
Reply: 77.4% (inactive)
